Quick note: these are Ki numbers for system: 3-dehydroquinate dehydratase (Mycobacterium tuberculosis, UniProt P9WPX7)
Numbers only; they are read as µM.

Use the examples below as a reference point.
- MOLECULE: "O=C(O)[C@]1(O)C=C(c2ccc(C(F)(F)F)cc2)[C@@H](O)[C@H](O)C1"
  Ki [µM]: 17
- MOLECULE: "O=C(O)[C@]1(O)C=C(c2cccnc2)[C@@H](O)[C@H](O)C1"
  Ki [µM]: 45
- MOLECULE: "O=C(O)[C@]1(O)C=C(c2ccc(F)cc2)[C@@H](O)[C@H](O)C1"
  Ki [µM]: 1.8

// next entry
Reported Ki (3-dehydroquinate dehydratase (Mycobacterium tuberculosis, UniProt P9WPX7)) for entry O=C(O)[C@]1(O)C=C(c2ccccc2)[C@@H](O)[C@H](O)C1 is 1.5

###

# TGT: 3-dehydroquinate dehydratase (Mycobacterium tuberculosis, UniProt P9WPX7)
# Sequence (P9WPX7 whole entry): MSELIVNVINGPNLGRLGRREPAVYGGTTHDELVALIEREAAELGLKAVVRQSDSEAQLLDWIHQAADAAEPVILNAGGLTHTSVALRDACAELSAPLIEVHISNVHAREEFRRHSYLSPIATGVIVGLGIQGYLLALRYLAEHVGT
molecules and their reported log10 of Ki
Please keep in mind that the values are log10 of Ki expressed in nM.

- MOLECULE: "O=C(O)[C@]1(O)C/C(=N\\O)[C@@H](O)[C@H](O)C1"
  MEASURED_PROPERTY: "log10 of Ki"
  NUMERIC_RESULT: 4.30

Documented log10 of Ki of O=C(O)[C@]1(O)C=C(c2cccc(C(F)(F)F)c2)[C@@H](O)[C@H](O)C1 : 3.33

Documented log10 of Ki of O=C(O)[C@]1(O)C=C(c2cc(F)cc(F)c2)[C@@H](O)[C@H](O)C1 : 3.39

Documented log10 of Ki of O=C(O)[C@]1(O)C=C(c2ccoc2)[C@@H](O)[C@H](O)C1 : 2.92

Documented log10 of Ki of O=C(O)[C@]1(O)C=C(c2cccc(F)c2)[C@@H](O)[C@H](O)C1 : 3.18

Documented log10 of Ki of O=C(O)[C@]1(O)C=C(c2cccc(O)c2)[C@@H](O)[C@H](O)C1 : 4.98

Documented log10 of Ki of O=C(O)[C@]1(O)C=C(c2ccsc2)[C@@H](O)[C@H](O)C1 : 2.77

Documented log10 of Ki of O=C(O)c1cccc(C2=C[C@@](O)(C(=O)O)C[C@@H](O)[C@@H]2O)c1 : 5.18

Documented log10 of Ki of O=C(O)[C@]1(O)C=C(F)[C@@H](O)[C@H](O)C1 : 4.00

Documented log10 of Ki of O=C(O)[C@]1(O)C=C(c2cccc([N+](=O)[O-])c2)[C@@H](O)[C@H](O)C1 : 1.73

Measured values drawn from ChEMBL document CHEMBL1140333 for this set.
